biological target: GST tagged LXRalpha LBD (ligand binding domain) (Homo sapiens); construct: purchased Invitrogen pv4655; assay: LanthaScreen TR-FRET Liver X Receptor Coactivator Assay, LXR alpha-LBD (co-activator recruitment; IP and % Emax relative to T0901317); assay type: biochemical; details: efficacy at max dose in relation to reference T0901317, LXR alpha-LBD; read-out: LXR alpha actiivty at max dose (%)
Measured Emax determines class: low bracket = under 10%, middle bracket = from 10% up to 20%, high bracket = 20% and over

# count of solved cases: 3
[
  {
    "compound": "CN(C)C(=O)c1ccc(N2CCC(CCCNC(=O)C3(c4ccccc4)CCC3)CC2)nc1Cl [Example 5-16]",
    "label.class": "high bracket"
  },
  {
    "compound": "CN(C)C(=O)c1ccc(N2CCC3(CC2)C[C@H]3CCN(C)C(=O)[C@](O)(c2ccccc2)C(F)(F)F)cc1Cl [Example 7-25]",
    "label.class": "high bracket"
  },
  {
    "compound": "CNC(=O)c1ccc(N2CCC(CC3CC(NC(=O)[C@](O)(c4cccc(OC)c4)C(F)(F)F)C3)CC2)cc1Cl (stereo partly shown) [Example 11-5]",
    "label.class": "low bracket"
  }
]

Asked: Into which bin does this compound go? CN(C)C(=O)c1ccc(N2CCC(CCCN(C)C(=O)[C@](O)(c3ccccc3)C3CCC3)CC2)nc1Cl [Example 1-22]
Given back: low bracket

Asked: Into which bin does this compound go? CN(C)C(=O)c1ccc(N2CCC(CCCN(C)C(=O)[C@]3(c4ccccc4)CCCO3)CC2)nc1Cl [Example 1-10]
Given back: low bracket

Asked: Into which bin does this compound go? CC(C)C(O)(C(=O)NCCCC1CCN(c2ccc(C(=O)N(C)C)c(Cl)n2)CC1)C(F)(F)F (stereo not shown) [Example 5-7]
Given back: high bracket

Asked: Into which bin does this compound go? CN(C)C(=O)c1ccc(N2CCC(CCCN(C)C(=O)C3(c4ccccc4)CCCC3)CC2)nc1Cl [Example 1-42]
Given back: middle bracket

Asked: Into which bin does this compound go? CN(C)C(=O)c1ccc(N2CCC(CCCNC(=O)[C@@](O)(c3ccccc3)C(F)(F)F)CC2)nc1Cl [Example 5-9]
Given back: low bracket

Asked: Into which bin does this compound go? CN(C)C(=O)c1ccc(N2CCC([C@@H]3C[C@H]3CN(C)C(=O)[C@@](O)(c3ccccc3)C(F)(F)F)CC2)nc1Cl [Example 15-16]
Given back: low bracket

Asked: Into which bin does this compound go? COc1cccc([C@@](O)(C(=O)N(C)[C@H]2C[C@H](C3CCN(c4ccc(C(=O)N(C)C)c(Cl)n4)CC3)C2)C(F)(F)F)c1 [Example 17-3]
Given back: middle bracket

Asked: Into which bin does this compound go? CN(C)C(=O)c1ccc(N2CCC(CCCN(C)C(=O)[C@@]3(c4ccccc4)CCCO3)CC2)nc1Cl [Example 1-38]
Given back: middle bracket

Asked: Into which bin does this compound go? COc1cccc([C@@](O)(C(=O)Nc2ccc(C3CCN(c4ccc(C(=O)N(C)C)c(Cl)n4)CC3)cc2)C(F)(F)F)c1 [Example 10-1]
Given back: low bracket

Asked: Into which bin does this compound go? CN(C)C(=O)c1ccc(N2CCC(CC3CC(NC(=O)[C@](O)(c4ccccc4)C(F)(F)F)C3)CC2)cc1Cl (stereo partly shown) [Example 11-4]
Given back: middle bracket

Asked: Into which bin does this compound go? CN(C)C(=O)c1ccc(N2CCC(CCCN(C)C(=O)[C@](O)(c3ccccc3)C(F)(F)F)CC2)nc1C#N [Example 2-19]
Given back: high bracket

###

Biological target: GST tagged LXRbeta LBD (ligand binding domain) (Homo sapiens)
Sequence (P55055 222-460 limits assumed): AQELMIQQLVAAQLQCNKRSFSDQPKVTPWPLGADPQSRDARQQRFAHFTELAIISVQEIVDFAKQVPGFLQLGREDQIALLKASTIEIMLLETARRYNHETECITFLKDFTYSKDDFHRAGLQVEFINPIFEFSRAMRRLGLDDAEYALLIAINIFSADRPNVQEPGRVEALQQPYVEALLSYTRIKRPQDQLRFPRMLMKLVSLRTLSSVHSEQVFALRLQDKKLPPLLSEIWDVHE
Assay: LanthaScreen TR-FRET Liver X Receptor Coactivator Assay, LXR beta-LBD (co-activator recruitment; IP and % Emax relative to T0901317)
Conditions: Inflection Point of co-activator recruitment, LXR beta-LBD, TR-FRET
measurement.kind: pEC50
Please note pEC50 is a logarithmic value: minus log10 of concentration in mol/L. Answer with that number alone.

Previously resolved entries follow.
[
  {
    "molecule": "CN(C)C(=O)c1ccc(N2CCC([C@@H]3C[C@H]3CNC(=O)[C@@](O)(c3ccccc3)C(F)(F)F)CC2)cc1Cl [Example 15-17]",
    "measured.number": 6.30
  },
  {
    "molecule": "CN(C)C(=O)c1ccc(N2CCC(CCCNC(=O)[C@](O)(c3cccc(C4CC4)c3)C(F)(F)F)CC2)nc1Cl",
    "measured.number": 6.68
  },
  {
    "molecule": "CN(C)C(=O)c1ccc(N2CCC(CCCN(C)C(=O)[C@](C)(O)c3ccccc3)CC2)nc1Cl",
    "measured.number": 6.29
  },
  {
    "molecule": "CN(C)C(=O)c1ccc(N2CCC(CCCN(C)C(=O)C(O)(c3cccc(O)c3)C(F)(F)F)CC2)nc1Cl (stereo not drawn)",
    "measured.number": 7.35
  }
]

Asked: Under GST tagged LXRbeta LBD (ligand binding domain) (Homo sapiens): pEC50 value of CN(C)C(=O)c1ccc(N2CCC([C@H]3C[C@H]3CN(C)C(=O)[C@](O)(c3cccc(OC4CC4)c3)C(F)(F)F)CC2)nc1Cl ?
Given back: 7.13

Asked: Under GST tagged LXRbeta LBD (ligand binding domain) (Homo sapiens): pEC50 value of CN(C)C(=O)c1ccc(N2CCC(CCCN(C)C(=O)[C@](O)(c3ccccc3)C3CC3)CC2)nc1Cl ?
Given back: 6.45

###

Items are presented alongside their recorded Emax.
biological target: GST tagged LXRbeta LBD (ligand binding domain) (Homo sapiens, UniProt P55055); construct: purchased Invitrogen pv4658.pps; experiment: LanthaScreen TR-FRET Liver X Receptor Coactivator Assay, LXR beta-LBD (co-activator recruitment; IP and % Emax relative to T0901317); type: biochemical; conditions: efficacy at max dose in relation to reference T0901317, LXR beta-LBD; read-out: LXR beta actiivty at max dose (%)
# number only, unit % dropped from output

[
  {
    "structure": "CN(C)C(=O)c1ccc(N2CCC(CCCN(C)C(=O)[C@@]3(c4ccccc4)CCCO3)CC2)nc1Cl",
    "unit.spec": "%",
    "measured.number": 78
  }
]

Asked: Record request: Emax value, item CN(C)C(=O)c1ccc(N2CCC(CCCN(C)C(=O)C(C)(C)c3ccccc3)CC2)cc1Cl
Given back: 50

Asked: Record request: Emax value, item CN(C)C(=O)c1ccc(N2CCC([C@H]3C[C@H]3CN(C)C(=O)[C@](O)(c3cccc(C4CC4)c3)C(F)(F)F)CC2)nc1Cl
Given back: 75

Asked: Record request: Emax value, item COc1cccc([C@@](O)(C(=O)N(C)CC[C@@H]2CC23CCN(c2ccc(C(=O)NC4CC4)c(Cl)c2)CC3)C(F)(F)F)c1
Given back: 32

###

target: GST tagged LXRalpha LBD (ligand binding domain) (Homo sapiens, UniProt Q13133); construct: purchased Invitrogen pv4655; assay: LanthaScreen TR-FRET Liver X Receptor Coactivator Assay, LXR alpha-LBD (co-activator recruitment; IP and % Emax relative to T0901317); format: biochemical; details: efficacy at max dose in relation to reference T0901317, LXR alpha-LBD; read-out: LXR alpha actiivty at max dose (%)
Sequence (Q13133 209-447 limits assumed): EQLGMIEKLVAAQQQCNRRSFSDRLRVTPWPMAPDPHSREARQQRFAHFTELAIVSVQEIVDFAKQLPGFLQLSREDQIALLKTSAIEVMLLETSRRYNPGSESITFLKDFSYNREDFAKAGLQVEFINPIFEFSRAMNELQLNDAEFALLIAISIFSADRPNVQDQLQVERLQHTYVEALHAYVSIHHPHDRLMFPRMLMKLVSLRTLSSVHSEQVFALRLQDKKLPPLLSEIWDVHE
measurement.kind: Emax (%)
# number only, unit % dropped from output

[
  {
    "molecule": "COc1cccc([C@@](O)(C(=O)NC[C@@H]2C[C@@H]2C2CCN(c3ccc(C(=O)N(C)C)c(Cl)n3)CC2)C(F)(F)F)c1",
    "unit.spec": "%",
    "measured.number": 4
  },
  {
    "molecule": "COc1cccc([C@@](O)(C(=O)N(C)CC(C)CC2CCN(c3ccc(C(=O)N(C)C)c(Cl)n3)CC2)C(F)(F)F)c1 (single isomer, unassigned)",
    "unit.spec": "%",
    "measured.number": 0
  },
  {
    "molecule": "CN(C)C(=O)c1ccc(N2CCC([C@@H]3C[C@H]3CN(C)C(=O)[C@@](O)(c3ccccc3)C(F)(F)F)CC2)cc1Cl",
    "unit.spec": "%",
    "measured.number": 12
  },
  {
    "molecule": "COc1cccc([C@@](O)(C(=O)N(C)CCCC2(F)CCN(c3ccc(C(=O)N(C)C)c(Cl)c3)CC2)C(F)(F)F)c1",
    "unit.spec": "%",
    "measured.number": 4
  },
  {
    "molecule": "COc1cccc([C@@](O)(C(=O)N[C@H](C)CCC2CCN(c3ccc(C(=O)N(C)C)c(Cl)n3)CC2)C(F)(F)F)c1",
    "unit.spec": "%",
    "measured.number": 29
  }
]

Asked: Record request: Emax value, item COc1cccc([C@@](O)(C(=O)N(C)CCCC2CCN(c3ccc(C(=O)N4CC(N)C4)c(Cl)n3)CC2)C(F)(F)F)c1
Given back: 11

Asked: Record request: Emax value, item CN(C)C(=O)c1ccc(N2CCC(CCCN(C)C(=O)C(C)(C)c3ccccc3)CC2)cc1Cl
Given back: 8
